- Experiment: Amounts of ketone and alcohol formed by the thermal decomposition of peroxyketal in cumene
- Format: physicochemical
- Protocol conditions: 100° C.
Readout: Ratio of ketone to alcohol

1) CCCC(C)(C)OOC1(OC)CC(C)CC(C)(C)C1 (stereo not shown) [Example 12]	2.27
2) CCC(C)(C)OOC1(OOC(C)(C)CC)CCCCC1 [compound 2, reference compound]	2.81
3) CCCC(C)(C)OOC1(OC)CCCCC1 [Example 9]	2.26
4) COC1(OOC(C)(C)C)CCCCC1 [Example 7]	0.21
5) CC(C)(C)OOC1(OOC(C)(C)C)CCCCC1 [Comparative example 1, reference compound]	0.01
6) CCCC(C)(C)OOC1(OOC(C)(C)CCC)CC(C)CC(C)(C)C1 (stereo not shown) [compound 6, reference compound]	1.25
7) CCCC(C)(C)OOC1(OOC(C)(C)CCC)CCCCC1 [compound 3, reference compound]	1.28

* * *

- Experiment: Amounts of ketone and alcohol formed by the thermal decomposition of peroxyketal in cumene
- Type: physicochemical
- Protocol conditions: 100° C.
Entries and their Thermal decomposition product: Ketone
Readout: Thermal decomposition product: Ketone

1) CCCC(C)(C)OOC1(OOC(C)(C)CCC)CC(C)CC(C)(C)C1 (stereo not shown) [compound 6, reference compound]	0.80 mols per 1 mol of decomposed p
2) CCCC(C)(C)OOC1(OOC(C)(C)CCC)CCCCC1 [compound 3, reference compound]	0.83 mols per 1 mol of decomposed p
3) COC1(OOC(C)(C)C)CCCCC1	0.10 mols per 1 mol of decomposed p
4) COC1(OOC(C)(C)CC(C)(C)C)CCCCC1	0.79 mols per 1 mol of decomposed p
5) CCCC(C)(C)OOC1(OC)CC(C)CC(C)(C)C1 (stereo not shown)	0.68 mols per 1 mol of decomposed p
6) CC(C)(C)OOC1(OOC(C)(C)C)CCCCC1 [Comparative example 1, reference compound]	0.02 mols per 1 mol of decomposed p
7) CC(C)(C)CC(C)(C)OOC1(OOC(C)(C)CC(C)(C)C)CCCCC1 [compound 4, reference compound]	0.29 mols per 1 mol of decomposed p
8) CCCC(C)(C)OOC1(OC)CCCCC1	0.70 mols per 1 mol of decomposed p
9) CCC(C)(C)OOC1(OOC(C)(C)CC)CCCCC1 [compound 2, reference compound]	0.73 mols per 1 mol of decomposed p
10) CCC(C)(C)OOC1(OC)CCCCC1	0.80 mols per 1 mol of decomposed p

* * *

Entries and their Decomposition rate constant
- Experiment: Thermal decomposition of peroxyketal in cumene at 100° C.
- Type: physicochemical
- Protocol conditions: 0.05 mol/l
Readout: Decomposition rate constant

1. COC1(OOC(C)(C)c2ccccc2)CCCCC1	11.32 ×10^5 (1/sec)
2. CC(C)(C)OOC1(OOC(C)(C)C)CCCCC1 [Comparative example 1, reference compound]	5.06 ×10^5 (1/sec)
3. CC(C)(OOC1(OOC(C)(C)c2ccccc2)CCCCC1)c1ccccc1 [compound 5, reference compound]	8.24 ×10^5 (1/sec)
4. COC1(OOC(C)(C)CC(C)(C)C)CCCCC1	28.40 ×10^5 (1/sec)
5. CCCC(C)(C)OOC1(OOC(C)(C)CCC)CC(C)CC(C)(C)C1 (centres unmarked) [compound 6, reference compound]	7.50 ×10^5 (1/sec)

* * *

Entries and their Ratio of ketone to alcohol
- Experiment: Amounts of ketone and alcohol formed by the thermal decomposition of peroxyketal in cumene
- Format: physicochemical
- Protocol conditions: 100° C.
Readout: Ratio of ketone to alcohol

1) COC1(OOC(C)(C)c2ccccc2)CCCCC1	0.42
2) COC1(OOC(C)(C)CC(C)(C)C)CCCCC1	79.0
3) CC(C)(OOC1(OOC(C)(C)c2ccccc2)CCCCC1)c1ccccc1 [compound 5, reference compound]	0.41
4) CC(C)(C)CC(C)(C)OOC1(OOC(C)(C)CC(C)(C)C)CCCCC1 [compound 4, reference compound]	1.21
5) CCC(C)(C)OOC1(OC)CCCCC1	5.71
